- Test protocol: Lactate dehydrogenase (LDH) release assay
- Type: cell-based
- Measurement conditions: 0% FBS 16Hr; read-out: LDH: Cytotoxicity assay: EC50
pEC50: −log10 of the molar value.
Measured quantity: pEC50

## Task Please look at this compound and report its pEC50: `CC(=O)N[C@@H](CCCCN=[N+]=[N-])C(=O)NCCC(=O)N[C@H]1CCCCNC(=O)CC[C@@H]2NC(=O)[C@@](C)(CCCCCCC=CCCC[C@@](C)(C(=O)N[C@@H](CO)C(=O)N[C@@H](C)C(=O)N[C@@H](C)C(N)=O)NC(=O)[C@H](CC3CCC3)NC(=O)[C@H](CCC(N)=O)NC(=O)[C@H](C)NC(=O)[C@H](Cc3c[nH]c4ccccc34)NC(=O)[C@H](Cc3ccc(O)cc3)NC2=O)NC(=O)[C@H](Cc2ccccc2)NC(=O)[C@H]([C@@H](C)O)NC1=O`
## Result < 4.29
